target: Galectin-3 (Homo sapiens); assay: fluorescence anisotropy assay, compound as inhibitor of galectin / fluorescein tagged saccharide probe interaction
Sequence (P17931 whole entry): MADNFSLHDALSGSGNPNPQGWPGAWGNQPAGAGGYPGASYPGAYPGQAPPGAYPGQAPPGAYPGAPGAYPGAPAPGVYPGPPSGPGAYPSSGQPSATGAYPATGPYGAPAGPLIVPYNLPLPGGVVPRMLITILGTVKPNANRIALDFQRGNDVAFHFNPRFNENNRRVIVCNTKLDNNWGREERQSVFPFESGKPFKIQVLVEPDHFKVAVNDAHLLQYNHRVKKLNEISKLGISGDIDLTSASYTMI
Answer each item with its documented pKd.
FYI, pKd means -log10 of a concentration in mol per litre.

Enquiry: Which measured pKd belongs to Cc1sc(N)nc1-c1cn(C2C(O)[C@@H](Sc3cnc(C(F)(F)F)c(Br)c3)OC(CO)[C@@H]2O)nn1 (stereo partly drawn) , tested on Galectin-3 (Homo sapiens)?
Return: 5.52

Enquiry: Which measured pKd belongs to `CO[C@@H]1[C@@H](n2cc(-c3nc(Cl)cs3)nn2)[C@@H](O)[C@@H](CO)O[C@@H]1Sc1cncc(Br)c1` , tested on Galectin-3 (Homo sapiens)?
Return: 6.72

Enquiry: Which measured pKd belongs to `CO[C@@H]1[C@@H](n2cc(-c3csc(N)n3)nn2)[C@@H](O)[C@@H](CO)O[C@@H]1Sc1cccc(Cl)c1` , tested on Galectin-3 (Homo sapiens)?
Return: 5.25

Enquiry: Which measured pKd belongs to `N#Cc1cc(Cl)cc(S[C@H]2O[C@H](CO)[C@H](O)[C@H](n3cc(-c4nc(Cl)cs4)nn3)[C@H]2O)c1` , tested on Galectin-3 (Homo sapiens)?
Return: 6.43

Enquiry: Which measured pKd belongs to `CO[C@@H]1[C@@H](n2cc(-c3csc(N)n3)nn2)[C@@H](O)[C@@H](CO)O[C@@H]1Sc1cc(Cl)cnc1-c1ccccn1` , tested on Galectin-3 (Homo sapiens)?
Return: 5.77

Enquiry: Which measured pKd belongs to `CO[C@@H]1[C@@H](n2cc(-c3csc(N)n3)nn2)[C@@H](O)[C@@H](CO)O[C@@H]1Sc1cc(Cl)cnc1-c1ccncc1` , tested on Galectin-3 (Homo sapiens)?
Return: 5.39
